System: DGKζ (Homo sapiens (Human), UniProt Q13574)
Sequence (Q13574 other isoform, or with tags, fused parts or gaps): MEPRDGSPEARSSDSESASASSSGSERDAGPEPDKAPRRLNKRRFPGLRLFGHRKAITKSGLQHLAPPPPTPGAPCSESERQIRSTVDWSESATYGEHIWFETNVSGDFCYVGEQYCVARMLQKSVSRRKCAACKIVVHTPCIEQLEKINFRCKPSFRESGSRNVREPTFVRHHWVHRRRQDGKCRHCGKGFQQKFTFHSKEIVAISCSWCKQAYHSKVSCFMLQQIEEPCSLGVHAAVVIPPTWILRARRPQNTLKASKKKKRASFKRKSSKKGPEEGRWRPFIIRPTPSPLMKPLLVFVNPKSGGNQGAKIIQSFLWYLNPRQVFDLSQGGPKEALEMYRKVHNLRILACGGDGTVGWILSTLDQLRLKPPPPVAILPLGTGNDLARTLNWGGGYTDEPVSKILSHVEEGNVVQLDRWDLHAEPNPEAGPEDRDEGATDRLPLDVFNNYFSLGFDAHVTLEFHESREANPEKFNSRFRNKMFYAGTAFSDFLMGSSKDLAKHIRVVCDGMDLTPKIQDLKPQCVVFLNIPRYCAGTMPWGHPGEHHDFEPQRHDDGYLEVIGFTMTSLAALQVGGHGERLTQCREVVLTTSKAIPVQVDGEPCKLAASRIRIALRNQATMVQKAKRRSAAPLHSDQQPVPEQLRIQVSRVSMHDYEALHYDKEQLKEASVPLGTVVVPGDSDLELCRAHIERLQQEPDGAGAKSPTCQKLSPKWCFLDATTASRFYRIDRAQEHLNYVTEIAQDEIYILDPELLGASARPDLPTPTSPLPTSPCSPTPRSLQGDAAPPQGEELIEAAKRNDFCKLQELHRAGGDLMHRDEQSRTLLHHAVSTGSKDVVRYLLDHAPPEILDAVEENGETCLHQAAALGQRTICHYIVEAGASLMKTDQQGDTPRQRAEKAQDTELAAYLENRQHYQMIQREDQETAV
// reported IC50 for each item listed
Assay Metric: IC50 (nM)

[[record]]
molecule = "CC[C@H]1CN(C(C)c2ccc3c(c2)OCO3)[C@H](CC)CN1c1cc(=O)n(C)c2cn(CC#N)nc12 (single isomer, unassigned) [Compound A68b]"
assay_metric = "IC50"
value_units = "nM"
prefix_operator = "="
obs_value = 2550

[[record]]
molecule = "CC[C@H]1CN(C(C)c2ccc(OC)cc2C)[C@H](CC)CN1c1cc(=O)n(C)c2cn(CC#N)nc12 (stereo partly drawn) [Compound A14]"
assay_metric = "IC50"
value_units = "nM"
prefix_operator = "="
obs_value = 63

[[record]]
molecule = "CC[C@H]1CN(C(C)c2ccc3ncsc3c2)[C@H](CC)CN1c1nc(=O)n(C)c2cn(CC#N)nc12 (stereo partly drawn) [Compound A123]"
assay_metric = "IC50"
value_units = "nM"
prefix_operator = "="
obs_value = 11

[[record]]
molecule = "CC[C@H]1CN(C(C)c2ccc3ncc(Cl)n3n2)[C@H](CC)CN1c1cc(=O)n(C)c2cn(CC#N)nc12 (single isomer, unassigned) [Compound A167a]"
assay_metric = "IC50"
value_units = "nM"
prefix_operator = ">"
obs_value = 10000

[[record]]
molecule = "CC[C@H]1CN(C(C)c2ccc(C(=O)N(C)C)c(F)c2)[C@H](CC)CN1c1cc(=O)n(C)c2cn(CC#N)nc12 (single isomer, unassigned) [Compound A4b]"
assay_metric = "IC50"
value_units = "nM"
prefix_operator = "="
obs_value = 3170

[[record]]
molecule = "CC[C@H]1CN(C(C)c2ccc(OC3(C)COC3)cc2)[C@H](CC)CN1c1cc(=O)n(C)c2cn(CC#N)nc12 (stereo partly drawn) [Compound A24]"
assay_metric = "IC50"
value_units = "nM"
prefix_operator = "="
obs_value = 427

[[record]]
molecule = "CC[C@H]1CN(C(C)c2nc3c(s2)CCCC3)[C@H](CC)CN1c1cc(=O)n(C)c2cn(CC#N)nc12 (single isomer, unassigned) [Compound A36a]"
assay_metric = "IC50"
value_units = "nM"
prefix_operator = "="
obs_value = 57

[[record]]
molecule = "CC(c1ccc2ncsc2c1)N1C[C@H](C)N(c2cc(=O)n(C)c3cn(CC#N)nc23)C[C@H]1C (stereo partly drawn) [Compound A93]"
assay_metric = "IC50"
value_units = "nM"
prefix_operator = "="
obs_value = 99

[[record]]
molecule = "CC[C@H]1CN(C(C)c2ccc(C3CC3)nc2)[C@H](CC)CN1c1c(F)c(=O)n(C)c2cn(CC#N)nc12 (single isomer, unassigned) [Compound A48b]"
assay_metric = "IC50"
value_units = "nM"
prefix_operator = "="
obs_value = 108

[[record]]
molecule = "CC[C@H]1CN([C@@H](C)c2ccc(OC(C)C)cc2)[C@H](CC)CN1c1cc(=O)n(C)c2cn(CC#N)nc12 [Compound A33b]"
assay_metric = "IC50"
value_units = "nM"
prefix_operator = "="
obs_value = 770

[[record]]
molecule = "CC[C@H]1CN(C(C)c2ccn3nccc3c2)[C@H](CC)CN1c1nc(=O)n(C)c2cn(CC#N)nc12 (single isomer, unassigned) [Compound A159a]"
assay_metric = "IC50"
value_units = "nM"
prefix_operator = "="
obs_value = 56

[[record]]
molecule = "CC[C@@H]1CN(c2cc(=O)n(C)c3cn(CC#N)nc23)[C@@H](C)CN1[C@@H](C)c1ccn2nc(C)c(F)c2n1 (single isomer, unassigned) [Compound A173a]"
assay_metric = "IC50"
value_units = "nM"
prefix_operator = "="
obs_value = 19


Reference source: patent US20250346597A1
